What follows is a collection of IC50 values obtained with MAT2a (Homo sapiens (Human), UniProt P31153).
Sequence (P31153 whole entry): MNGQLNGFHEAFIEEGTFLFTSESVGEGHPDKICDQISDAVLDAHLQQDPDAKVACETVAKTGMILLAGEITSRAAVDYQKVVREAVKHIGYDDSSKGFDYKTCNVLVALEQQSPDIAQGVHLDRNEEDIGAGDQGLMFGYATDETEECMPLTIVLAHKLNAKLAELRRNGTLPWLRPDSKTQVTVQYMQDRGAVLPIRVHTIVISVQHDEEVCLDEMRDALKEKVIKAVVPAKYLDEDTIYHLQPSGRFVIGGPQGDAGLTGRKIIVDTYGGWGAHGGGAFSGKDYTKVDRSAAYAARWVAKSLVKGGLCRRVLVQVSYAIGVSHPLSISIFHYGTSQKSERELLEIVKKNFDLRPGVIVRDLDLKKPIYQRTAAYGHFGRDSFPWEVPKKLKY

[
  {
    "given_smiles": "Cn1cc2cc(-c3c(N)c4ccc(C(F)(F)F)nc4n(-c4ccc(Br)cc4)c3=O)ccc2n1",
    "system": "MAT2a (Homo sapiens (Human), UniProt P31153)",
    "IC50": "17.4 nM"
  },
  {
    "given_smiles": "Nc1c(-c2ccc3c(c2)OCCO3)c(=O)n(-c2ccc(Cl)cc2)c2nc(C(F)(F)F)ccc12",
    "system": "MAT2a (Homo sapiens (Human), UniProt P31153)",
    "IC50": "14.4 nM"
  },
  {
    "given_smiles": "Nc1c(-n2cncn2)c(=O)n(-c2ccc(Cl)cc2)c2nc(C(F)(F)F)ccc12",
    "system": "MAT2a (Homo sapiens (Human), UniProt P31153)",
    "IC50": "18.4 nM"
  },
  {
    "given_smiles": "CNc1c(-c2ccccc2)c(=O)n(-c2ccccc2)c2nc(C(F)(F)F)ccc12",
    "system": "MAT2a (Homo sapiens (Human), UniProt P31153)",
    "IC50": "32 nM"
  },
  {
    "given_smiles": "Cc1ccc(-n2c(=O)c(-c3ccco3)c(N)c3ccc(C(F)(F)F)nc32)cc1",
    "system": "MAT2a (Homo sapiens (Human), UniProt P31153)",
    "IC50": "15.4 nM"
  },
  {
    "given_smiles": "Nc1c(-c2cc3nccnc3cn2)c(=O)n(-c2ccc(Cl)cc2)c2nc(C(F)(F)F)ccc12",
    "system": "MAT2a (Homo sapiens (Human), UniProt P31153)",
    "IC50": "25.4 nM"
  },
  {
    "given_smiles": "Nc1c(-c2ccc3[nH]cnc3c2)c(=O)n(-c2ccc(Cl)cc2)c2nc(C(F)(F)F)ccc12",
    "system": "MAT2a (Homo sapiens (Human), UniProt P31153)",
    "IC50": "17.2 nM"
  },
  {
    "given_smiles": "Cc1cc(-c2c(N)c3ccc(C(F)(F)F)nc3n(-c3ccc(Cl)cc3)c2=O)ccn1",
    "system": "MAT2a (Homo sapiens (Human), UniProt P31153)",
    "IC50": "13.8 nM"
  },
  {
    "given_smiles": "Nc1ccc(-c2c(N)c3ccc(C(F)(F)F)nc3n(-c3ccc(Cl)cc3)c2=O)cc1",
    "system": "MAT2a (Homo sapiens (Human), UniProt P31153)",
    "IC50": "22 nM"
  },
  {
    "given_smiles": "Cc1ccc(-n2c(=O)c(-c3ccnc(C)c3)c(N)c3ccc(C(F)(F)F)nc32)cc1",
    "system": "MAT2a (Homo sapiens (Human), UniProt P31153)",
    "IC50": "18 nM"
  },
  {
    "given_smiles": "CNc1c(-c2nnco2)c(=O)n(-c2ccccc2)c2nc(C(F)(F)F)ccc12",
    "system": "MAT2a (Homo sapiens (Human), UniProt P31153)",
    "IC50": "40.5 nM"
  },
  {
    "given_smiles": "COCCn1ncc2cc(-c3c(N)c4ccc(C(F)(F)F)nc4n(-c4ccc(Cl)cc4)c3=O)ccc21",
    "system": "MAT2a (Homo sapiens (Human), UniProt P31153)",
    "IC50": "13.6 nM"
  },
  {
    "given_smiles": "Nc1c(-c2ccc3cncnc3c2)c(=O)n(-c2ccc(Cl)cc2)c2nc(C(F)(F)F)ccc12",
    "system": "MAT2a (Homo sapiens (Human), UniProt P31153)",
    "IC50": "30.5 nM"
  },
  {
    "given_smiles": "Nc1c(-n2cccc2)c(=O)n(-c2ccc(Cl)cc2)c2nc(C(F)(F)F)ccc12",
    "system": "MAT2a (Homo sapiens (Human), UniProt P31153)",
    "IC50": "12.7 nM"
  },
  {
    "given_smiles": "Cn1cc(-c2c(N)c3ccc(C(F)(F)F)nc3n(-c3ccc(Cl)cc3F)c2=O)ccc1=O",
    "system": "MAT2a (Homo sapiens (Human), UniProt P31153)",
    "IC50": "14 nM"
  },
  {
    "given_smiles": "COc1ccc(-c2c(N)c3ccc(C(F)(F)F)nc3n(-c3ccc(Br)cc3)c2=O)nc1",
    "system": "MAT2a (Homo sapiens (Human), UniProt P31153)",
    "IC50": "15.2 nM"
  }
]
